system: NCI-H1944; experiment: normalised cell viability (NPI; 0 = phenylarsine oxide control, 1 = DMSO control) (fraction of DMSO control); higher = more viable cells (less compound toxicity); conditions: glucocorticoid arm: vehicle; compound 5 µM; 6 days
Where a name gives a salt, the structure may show the parent alone. In all, about 1,900 compounds were measured (“normalised cell viability (NPI; 0 = phenylarsine oxide control, 1 = DMSO control)”: median about 1, lowest 2% from about 0.039 on). The full list was thinned out, with the lowest values kept by preference.
Listed here are compounds together with their documented normalised cell viability.

# compound, normalised cell viability
data = [
    ("COc1cc(C(=O)NC2CCN(C)CC2)ccc1Nc1ncc2c(n1)N(C1CCCC1)CC(F)(F)C(=O)N2C", 0.0695),
    ("CC[C@@H]1C(=O)N(C)c2cnc(Nc3ccc(C(=O)N[C@H]4CC[C@H](N5CCN(CC6CC6)CC5)CC4)cc3OC)nc2N1C(C)C", 0.0219),
    ("CC[C@@H]1C(=O)N(C)c2cnc(Nc3ccc(C(=O)NC4CCN(C)CC4)cc3OC)nc2N1C1CCCC1", 0.0658),
    ("CC(C)C(=O)Oc1ccc(CO)cc1[C@H](CCN(C(C)C)C(C)C)c1ccccc1 [Fesoterodine Fumarate]", 1),
]

---

system: NCI-H1944; assay: normalised cell viability (NPI; 0 = phenylarsine oxide control, 1 = DMSO control) (fraction of DMSO control); NCI-H1944 is a non-small cell lung cancer line; higher = more viable cells (less compound toxicity); conditions: glucocorticoid arm: hydrocortisone 2.75 uM co-treatment; compound 5 µM; 6 days;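 also: CTB read-out in 384-well plates, triplicate wells, NPI normalised per plate against 1 µM phenylarsine oxide (0) and 0.1% DMSO (1) controls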
Structures can show the parent of a compound that is named as a salt. The full ranking holds about 1,900 compounds; the median of “normalised cell viability (NPI; 0 = phenylarsine oxide control, 1 = DMSO control)” is about 1, and the lowest 2% start at about 0.039. The sample as a whole holds a higher share of the lowest values than the screen did.
Listed here are compounds together with their documented normalised cell viability.

# compound, normalised cell viability
measured = [
    ("CS(=O)(=O)N1CCN(Cc2cc3nc(-c4cccc5[nH]ncc45)nc(N4CCOCC4)c3s2)CC1", 1.05),
    ("CCC(=O)N1CCN(c2ccc(-n3c(=O)ccc4cnc5ccc(-c6cnc7ccccc7c6)cc5c43)cc2C(F)(F)F)CC1", 0.383),
    ("C=CCN1CCc2c(cc(O)c(O)c2Cl)C(c2ccccc2)C1 (racemic) [(±)-Chloro-APB hydrobromide]", 1.02),
    ("C/C=C1\\C(=O)C[C@H]2[C@@H]3CCC4=CC(=O)CC[C@]4(C)[C@H]3CC[C@]12C [(Z)-Guggulsterone]", 0.98),
    ("O=c1[nH]cc(F)c(=O)[nH]1 [5-Fluorouracil]", 0.766),
    ("CC(=O)[C@]1(O)Cc2c(O)c3c(c(O)c2[C@@H](O[C@H]2C[C@H](N)[C@H](O)[C@H](C)O2)C1)C(=O)c1ccccc1C3=O [Idarubicin hydrochloride; Idarubicin; 4-DMD HCl]", 1.06),
    ("COc1cccc2c1C(=O)c1c(O)c3c(c(O)c1C2=O)C[C@@](O)(C(C)=O)C[C@@H]3O[C@H]1C[C@H](N)[C@H](O)[C@H](C)O1 [Daunorubicin hydrochloride; Daunorubicin HCl]", 1.05),
    ("O=c1[nH]cc(F)c(=O)[nH]1 [5-Fluorouracil; Fluorouracil]", 0.706),
    ("CN1CC[C@@H](c2c(O)cc(O)c3c(=O)cc(-c4ccccc4Cl)oc23)[C@@H]1CO", 0.031),
    ("CNCc1ccc(-c2[nH]c3cc(F)cc4c3c2CCNC4=O)cc1", 1),
    ("CCCCC(=O)OCC(=O)[C@]1(O)Cc2c(O)c3c(c(O)c2[C@@H](O[C@H]2C[C@H](NC(=O)C(F)(F)F)[C@H](O)[C@H](C)O2)C1)C(=O)c1c(OC)cccc1C3=O", 0.868),
    ("CC(C)NCC(O)c1ccc(O)c(O)c1 (racemic) [(±)-Isoproterenol hydrochloride]", 1.03),
    ("O=C(O)C1CCNCC1", 1.02),
    ("Nc1nc(Cl)nc2c1ncn2[C@@H]1O[C@H](CO)[C@@H](O)[C@@H]1F", 0.146),
    ("COc1cccc2c1C(=O)c1c(O)c3c(c(O)c1C2=O)C[C@@](O)(C(=O)CO)C[C@@H]3O[C@H]1C[C@H](N)[C@H](O)[C@H](C)O1 [Doxorubicin hydrochloride; 4'-Epiadriamycin; Doxorubicin HCl]", 0.288),
    ("CCCCCCCCCCCCCCCC(=O)OC(CC(=O)O)C[N+](C)(C)C (racemic) [Palmitoyl-DL-Carnitine chloride]", 0.975),
    ("NC(N)=N[C@@H](CCC(=O)O)C(=O)O", 0.983),
    ("Cc1cc(C(=O)NOCCO)c(Nc2ccc(I)cc2F)n(C)c1=O", 0.565),
    ("CC1(C)CCC(NC(=O)[C@@H](N)CCC(=O)O)CC1", 0.975),
    ("O=C(NCCO)c1ccc2c(c1)nc(Nc1cccc(Cl)c1)c1ccncc12", 0.854),
    ("CCN(CC)CCCC(C)Nc1ccnc2cc(Cl)ccc12 (stereo unspecified) [Chloroquine diphosphate]", 0.752),
    ("Cc1nc(N=Nc2cc([N+](=O)[O-])ccc2Cl)c(COP(=O)(O)O)c(C=O)c1O [MRS 2211 sodium salt hydrate]", 1.02),
    ("O=C(O)[C@@H]1C[C@H](C(=O)O)N1 [cis-Azetidine-2,4-dicarboxylic acid]", 0.97),
    ("CCCCCCCCCCCCCCCc1cccc(O)c1C(=O)O", 1.02),
    ("Nc1ccc(-c2ccc3ncc4ccc(=O)n(-c5cccc(C(F)(F)F)c5)c4c3c2)cn1", 0.171),
    ("Nc1ncnc2c1ncn2[C@@H]1O[C@H](CO)[C@@H](O)[C@H]1O", 1.01),
    ("CCN(CC)CCCC(C)Nc1c2ccc(Cl)cc2nc2ccc(OC)cc12 (stereo unspecified) [Quinacrine dihydrochloride]", 0.00304),
    ("CC1CCN=C(N)S1 (racemic) [(±)-AMT hydrochloride]", 0.968),
    ("Nc1ncn([C@H]2C[C@H](O)[C@@H](CO)O2)c(=O)n1", 1.12),
    ("OCC1OC(n2cnc3c(NCCc4ccccc4)ncnc32)C(O)C1O (stereo unspecified)", 0.933),
    ("N[C@@H](Cc1ccc(O)c(I)c1)C(=O)O", 0.973),
]
